Measured Target: Phosphatidylinositol 4-kinase beta (Homo sapiens, UniProt Q9UBF8)
Sequence (Q9UBF8 whole entry): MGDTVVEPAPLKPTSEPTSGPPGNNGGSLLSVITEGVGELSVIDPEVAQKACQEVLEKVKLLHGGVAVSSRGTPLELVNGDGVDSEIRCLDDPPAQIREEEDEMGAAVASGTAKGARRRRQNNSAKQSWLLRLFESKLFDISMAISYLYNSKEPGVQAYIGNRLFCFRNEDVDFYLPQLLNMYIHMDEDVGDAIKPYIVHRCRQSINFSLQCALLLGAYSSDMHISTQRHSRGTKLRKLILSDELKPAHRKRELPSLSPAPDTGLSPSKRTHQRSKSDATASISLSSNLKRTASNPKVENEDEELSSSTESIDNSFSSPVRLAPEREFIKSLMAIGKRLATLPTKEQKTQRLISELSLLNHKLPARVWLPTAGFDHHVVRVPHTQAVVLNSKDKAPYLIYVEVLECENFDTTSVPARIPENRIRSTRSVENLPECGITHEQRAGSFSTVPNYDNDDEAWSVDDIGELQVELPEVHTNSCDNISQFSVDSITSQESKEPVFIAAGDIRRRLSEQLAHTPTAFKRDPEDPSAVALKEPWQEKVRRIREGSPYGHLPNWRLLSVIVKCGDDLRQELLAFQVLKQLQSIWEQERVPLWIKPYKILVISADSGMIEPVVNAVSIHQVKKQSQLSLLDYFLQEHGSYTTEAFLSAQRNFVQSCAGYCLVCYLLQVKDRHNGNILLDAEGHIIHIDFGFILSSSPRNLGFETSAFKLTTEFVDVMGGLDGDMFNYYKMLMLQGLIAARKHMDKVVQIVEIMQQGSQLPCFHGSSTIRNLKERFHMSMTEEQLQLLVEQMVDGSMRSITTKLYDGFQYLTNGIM
Assay Details: Inhibition of human PI4KB using PI as substrate by ADP-Glo assay
pIC50: −log10 of the molar value.
Parameter: pIC50

Look up and state reported pIC50 for "CC(C)(O)CNc1ncc(-c2ccnc(Nc3ccnc(Cl)c3)n2)c(CC2CC2)n1" < 5.00

* * *

Measured Target: Phosphatidylinositol 4-kinase type 2-beta (Homo sapiens, UniProt Q8TCG2)
Sequence (Q8TCG2 whole entry): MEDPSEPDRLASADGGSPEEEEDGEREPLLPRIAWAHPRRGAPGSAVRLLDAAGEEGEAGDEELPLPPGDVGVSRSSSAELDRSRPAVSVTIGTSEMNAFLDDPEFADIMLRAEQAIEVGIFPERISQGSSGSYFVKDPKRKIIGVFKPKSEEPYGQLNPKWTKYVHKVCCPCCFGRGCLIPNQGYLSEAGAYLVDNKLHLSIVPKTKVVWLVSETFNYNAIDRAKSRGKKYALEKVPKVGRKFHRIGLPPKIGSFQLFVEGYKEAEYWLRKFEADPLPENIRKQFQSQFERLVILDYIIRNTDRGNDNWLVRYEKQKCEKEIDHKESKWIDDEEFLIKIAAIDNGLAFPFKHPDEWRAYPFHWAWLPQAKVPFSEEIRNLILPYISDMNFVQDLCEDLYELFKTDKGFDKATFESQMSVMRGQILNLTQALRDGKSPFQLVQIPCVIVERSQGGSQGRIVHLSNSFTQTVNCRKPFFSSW
Parameter: IC50

Look up and state reported IC50 for "CC(C)(O)CNc1ncc(-c2ccnc(Nc3ccnc(Cl)c3)n2)c(CC2CC2)n1" > 10 µM
